System: IL-4 stimulated CD23 upregulation in human Ramos B cells (JAK-1/JAK-3, Stat-6)
assayDetails: Assay for Ramos B-Cell Line Stimulated with IL-4 (CD23 upregulation, FACS)
Assay type: cell-based
details: Table III Example 3
hey, just use met if measured IC50 is less than 0.2 µM, otherwise not met

Would you please look over these solved cases?
NS(=O)(=O)c1cccc(Nc2ncc(F)c(Nc3ccc(CNS(=O)(=O)c4cccnc4)cc3)n2)c1 = met
NS(=O)(=O)c1cccc(Nc2ncc(F)c(Nc3ccc(CNS(=O)(=O)CC(F)(F)F)cc3)n2)c1 = met

# strict comparison: is reported IC50 < 0.2 µM? input = `Cc1ccc(Nc2ncc(F)c(Nc3ccc(CNS(=O)(=O)c4sc(N)nc4C)cc3)n2)cc1S(N)(=O)=O`
not met

# strict comparison: is reported IC50 < 0.2 µM? input = `Cc1cnc(Nc2cccc(S(=O)(=O)NC3(C(=O)O)CCCC3)c2)nc1Nc1cccc(CNS(=O)(=O)C2CC2)c1`
not met

# strict comparison: is reported IC50 < 0.2 µM? input = `Cc1cnc(Nc2cccc(S(=O)(=O)NC3CCN(C)CC3)c2)nc1Nc1ccc(CNS(=O)(=O)C2CC2)cc1`
met

# strict comparison: is reported IC50 < 0.2 µM? input = `Cc1ccc(Nc2ncc(C)c(Nc3cccc(CNS(=O)(=O)C4CC4)c3)n2)cc1S(=O)(=O)NCC1CC1`
met

# strict comparison: is reported IC50 < 0.2 µM? input = `Cc1cnc(Nc2cccc(S(N)(=O)=O)c2)nc1Nc1ccc(CN(C)S(=O)(=O)C2CC2)cc1`
met

# strict comparison: is reported IC50 < 0.2 µM? input = `CCS(=O)(=O)NCc1ccc(Nc2nc(Nc3ccc(S(N)(=O)=O)cc3)ncc2F)cc1`
not met

# strict comparison: is reported IC50 < 0.2 µM? input = `CCC(=O)NS(=O)(=O)c1cc(Nc2ncc(F)c(Nc3ccc(CNS(=O)(=O)C4CC4)cc3)n2)ccc1C`
not met

# strict comparison: is reported IC50 < 0.2 µM? input = `CCS(=O)(=O)N[C@H](C)c1ccc(Nc2nc(Nc3cccc(S(N)(=O)=O)c3)ncc2F)cc1`
met

# strict comparison: is reported IC50 < 0.2 µM? input = `Cc1ccc(Nc2ncc(F)c(Nc3ccc(CNS(=O)(=O)CC(F)(F)F)cc3)n2)cc1S(N)(=O)=O`
met

# strict comparison: is reported IC50 < 0.2 µM? input = `CCS(=O)(=O)NCCc1ccc(Nc2nc(Nc3cccc(S(N)(=O)=O)c3)ncc2F)cc1`
met

====

Tested on: IL-4 stimulated CD23 upregulation in human Ramos B cells (JAK-1/JAK-3, Stat-6)
assayDetails: Assay for Ramos B-Cell Line Stimulated with IL-4 (CD23 upregulation, FACS)
Format: cell-based
details: Table III Example 3
Assign IC50 to each entry below.
Give bare numbers, in nM.

// solved cases for IC50 follow
Cc1ccc(Nc2ncc(F)c(Nc3ccc(CNS(=O)(=O)C(C)C)cc3)n2)cc1S(N)(=O)=O [Compound I-67] = 82.4
CCCN(Cc1ccc(Nc2nc(Nc3ccc(C)c(S(N)(=O)=O)c3)ncc2C)cc1)S(=O)(=O)C1CC1 [Compound I-81] = 73.6
Cc1ccc(Nc2ncc(C)c(Nc3cccc(CN(C)S(=O)(=O)C4CC4)c3)n2)cc1S(N)(=O)=O [Compound I-122] = 81.6
CCS(=O)(=O)NCc1ccc(Nc2nc(Nc3cccc(S(N)(=O)=O)c3)ncc2F)cc1 [Compound I-9] = 80.1
Cc1cnc(Nc2ccc(S(N)(=O)=O)cc2)nc1Nc1cccc(CN(C)S(=O)(=O)C2CC2)c1 [Compound I-124] = 89.8

Provide each entry's IC50 from the list below.
1. Cc1cnc(Nc2cccc(S(N)(=O)=O)c2)nc1Nc1ccc(CNS(=O)(=O)c2cccnc2)cc1 [Compound I-100]
2. NS(=O)(=O)c1ccc(Nc2ncc(F)c(Nc3ccc(CNS(=O)(=O)C4CCCCC4)cc3)n2)cc1 [Compound I-71]
3. CCNS(=O)(=O)c1cccc(Nc2ncc(C)c(Nc3cccc(CNS(=O)(=O)C4CC4)c3)n2)c1 [Compound I-208]
4. Cc1cnc(Nc2ccc(S(N)(=O)=O)cc2)nc1Nc1ccc(CNS(=O)(=O)CC(F)(F)F)cc1 [Compound I-96]
5. CCS(=O)(=O)NCc1ccc(Nc2nc(Nc3ccc(C)c(S(N)(=O)=O)c3)ncc2F)cc1 [Compound I-10]

[102, 120, 74.3, 74.4, 94]

Provide each entry's IC50 from the list below.
1. Cc1cnc(Nc2cccc(S(=O)(=O)NC3CCCC3)c2)nc1Nc1ccc(CNS(=O)(=O)C2CC2)cc1 [Compound I-170]
2. Cc1ccc(Nc2ncc(C)c(Nc3cccc(CNS(=O)(=O)C4CC4)c3)n2)cc1S(=O)(=O)NC(C)C [Compound I-209]

1: 136; 2: 113

The recorded IC50 for Cc1cnc(Nc2cccc(S(N)(=O)=O)c2)nc1Nc1cccc(CNS(=O)(=O)C2CC2)c1 [Compound I-51] is 62.2
